Documented growth across a set of compounds
Test system: A549/ATCC NSCLC
ASSAY: NCI-60 one-dose screen, 48 h (100 = growth as untreated, 0 = no growth, -100 = all killed)
CONDITION DETAILS: 10 µM unless noted
Compounds without any hit were thinned out: in the full panel of roughly 83,000, 20% have a hit.

| COMPOUND | UNIT ABBREVIATION | growth |
| --- | --- | --- |
| COc1ccc(C2=Nn3c(nnc3-n3nc(C)cc3C)SC2)cc1 | % | 10.2 |
| Cc1nc2ncccc2nc1Nc1ccc(S(=O)(=O)Nc2ccccn2)cc1 | % | 101 |
| O=C1C(Cl)=C(Nc2ccccn2)C(=O)c2ccccc21 | % | 104 |
| CO[C@H]1NC(=O)N(S(=O)(=O)c2ccc(Cl)cc2)[C@@H]1OC | % | 98.2 |
| CN1C(=O)N(C)C2C1NN=c1s/c(=C\C=C\c3ccccc3)c(=O)n12 (stereo not given) | % | 52.7 |
| COc1ccc(-c2ccc(C)n2-c2ccc(-c3nc4cc(Cl)ccc4s3)cc2)cc1 | % | 95.5 |
| CN(C[C@H]1Cc2c(cccc2N2CCN(c3ncccn3)CC2)CN1)[C@H]1CCCc2cccnc21 | % | 25.7 |
| Cc1cc(N/N=C/c2nc(-c3ccc(Br)cc3)oc2C)c2cc(Cl)ccc2n1 | % | 65.5 |
| COc1ccc(N2CCN(Cc3cc(C(=O)/C=C/c4c[nH]c5ccccc45)ccc3O)CC2)cc1 | % | 102 |
| O=C1c2ccccc2-c2ccccc2C1(Cl)Cl | % | -21.2 |

* * *

Tested on: SF-295 CNS
ASSAY: NCI-60 one-dose screen, 48 h
CONDITION DETAILS: 10 µM unless noted
Procedure: Cells are grown in 96 well plates and exposed to the test compound for 48 hours. Compounds are tested at a single concentration, which is 10^-5 M for most compounds. The reported endpoint is percent growth (GI% or GIPRCNT), where numbers from 0 - 100% represent growth inhibition, and numbers from -100% - 0 represent cell death. For example, a value of 40 represents 60% growth inhibition. A value of 0 means no net growth occurred over the course of the experiment. […]
The panel holds about 83,000 compounds, 20% with a hit somewhere; the sample as a whole holds those more often. Activity calls are given as the source filed them. How the source made its calls: active means growth percent below 10; inactive means the rest.
Labels: active, inactive

| COMPOUND | CLASS LABEL |
| --- | --- |
| COc1ccc(C(=O)NC(=O)Nc2cc3c(cc2F)/C(=C/c2[nH]c(C)c(CCC(=O)O)c2C)C(=O)N3)c(F)c1 | inactive |
| CN1C(=O)N(C)C2C1NN=c1s/c(=C\c3cccnc3)c(=O)n12 (stereo unspecified) | inactive |
| Brc1cccc(-c2cc(-c3ccc4nccnc4c3)[nH]n2)c1 | active |
| C=C1C(=O)O[C@H]2[C@H]1CC/C(Cn1cc(-c3cccc(Cl)c3)nn1)=C\CC[C@@]1(C)O[C@@H]21 | inactive |
| CNC(=S)NNC(=O)C1CC1 | inactive |
| Clc1ccc2c(NC3CCC(NC4CCCCC4)CC3)ccnc2c1 (stereo unspecified) | inactive |
| COc1ccc(S(=O)(=O)Nc2cc(/C=C\c3cc(OC)c(OC)c(OC)c3)cc(OC)c2OC)cc1 | inactive |
| COc1ccc(OC)c(/C=C2\Oc3cc(OCCCN4CCCC4)ccc3C2=O)c1 | inactive |
| N=C(N)c1ccc(-c2ccc(-c3ccc(-c4cccs4)s3)s2)cc1 | inactive |
| CN(CCCCCl)P(=O)(OCc1ccc([N+](=O)[O-])o1)C(F)(F)C[C@H](NC(=O)CNC(=O)c1ccc(N=[N+]=[N-])cc1)C(=O)NCCc1ccc(O)cc1 (stereo partly specified) | inactive |
| C=C[C@@H]1C[C@H](O)Cc2ccccc2N1 | inactive |
| N=C(N)c1ccc(-c2ccc(-c3ccc4ccccc4c3)s2)cc1 | inactive |
| Cc1c(C(=O)/C=C/c2csc3ccccc23)[n+](=O)c2ccccc2n1[O-] | inactive |
| CCN(CC)CCCNc1nccc2ccc(Cl)cc12 | inactive |
| CCCCN(CCCC)C(=O)CC | inactive |
| COc1ccc(C2NN=C3c4ccccc4CCC32)cc1 (stereo unspecified) | inactive |
| COc1cc(C2C3=C(COC3=O)Nc3cc4c(cc32)CCC4)cc2c1OCO2 (stereo unspecified) | active |
| C=C1CC2(OC1=O)C(=O)N(CCCN1C(=O)C3(CC(=C)C(=O)O3)c3ccccc31)c1ccccc12 (stereo unspecified) | inactive |
| CCCCN(CCCC)C(=N)c1ccnc2ccccc12 | inactive |
| Cc1ccc(-c2cc3nc(C(Cl)Cl)nc(-c4ccccc4C)n3n2)cc1 | inactive |
| O=C1/C(=C/c2ccc([N+](=O)[O-])cc2)CN(C(=O)CCN2CCC(=NO)CC2)C/C1=C\c1ccc([N+](=O)[O-])cc1 | active |

* * *

Documented growth across a set of compounds
Test system: MDA-MB-435 melanoma
ASSAY: NCI-60 one-dose screen, 48 h (100 = growth as untreated, 0 = no growth, -100 = all killed)
CONDITION DETAILS: 10 µM unless noted
About 83,000 compounds went through this panel and 20% of them were active in at least one assay; those are over-represented in the sample as a whole.
ENDPOINT LABEL: growth (%)

| COMPOUND | ENDPOINT LABEL | RECORDED VALUE |
| --- | --- | --- |
| Cc1ccc(S(=O)(=O)NCCNc2nccc(-c3c(-c4cccc(N)c4)nc4sccn34)n2)cc1 | growth | 93.5 |
| O=C(Nc1ccc2c(c1)OCCO2)C(=O)c1c[nH]c2ccccc12 | growth | -29.1 |
| COc1ccc(CCNC2=CC(=O)CCC2)cc1OC | growth | 110 |
| Cn1cc(-c2cnc3ccc(NC(=O)Nc4ccc(F)c(Br)c4)cc3n2)cn1 | growth | 21.5 |
| COc1cc(-c2nn(-c3cccc(NC(=O)Nc4ccc(Cl)c(C(F)(F)F)c4)c3)cc2-c2ccncc2)ccc1Cl | growth | -52.3 |
| N=C(N)c1ccc(-c2cc(Cl)cc(Cl)c2)cn1 | growth | 56.7 |
| O=C1c2ccccc2-c2ccccc2C1(Cl)Cl | growth | -90.1 |
| CCOC(=O)c1ccc2c(c1)c1c(C)c3cccnc3c(C)c1n2C | growth | 73.4 |
| S=C1CC(=S)NC(=S)N1 | growth | 112 |
| CN(C)CCCC(C#N)c1ccccc1 (stereo unspecified) | growth | 115 |
| Cc1ccc(S(=O)(=O)/C(=C\c2ccc(Cl)cc2)C(=O)c2ccccc2)cc1 | growth | 88.7 |

* * *

Documented growth across a set of molecules
System: SK-OV-3 ovarian
ASSAY: NCI-60 one-dose screen, 48 h (100 = growth as untreated, 0 = no growth, -100 = all killed)
CONDITION DETAILS: 10 µM unless noted
About 83,000 compounds went through this panel and 20% of them were active in at least one assay; those are over-represented in the sample as a whole. Active and inactive are the calls of the source. Rule for the calls: active = growth percent below 10; inactive = the rest.
ENDPOINT LABEL: growth

| MOLECULE | ENDPOINT LABEL | RECORDED VALUE |
| --- | --- | --- |
| CC(=O)OC[C@]12CC[C@H]3[C@@H](C[C@H]4O[C@]45CC=CC(=O)[C@]35C)[C@]1(O)CC[C@@]2(O)[C@@](C)(O)C1CC(C)=C(C)C(=O)O1 (stereo not given in full) | growth | -13.1% (active) |
| COc1cccc(-c2nc3sccn3c2-c2ccnc(NCCCNS(=O)(=O)c3ccc(C(F)(F)F)cc3)c2)c1 | growth | 72.6% (inactive) |
| Nc1ncnc2c1c(-c1ccc(Oc3ccccc3)cc1)nn2C[C@@H]1SSC[C@@H]1O | growth | 3.68% (active) |
| Cc1csc(NC(c2ccccc2)c2c(C)nc3ccccn23)n1 (stereo not given) | growth | 97.3% (inactive) |
| C=C[C@@H]1C[C@H](O)Cc2c(C)cc(C)cc2N1 | growth | 106% (inactive) |
| CC(=O)c1cc2c(N)c(C(=O)Nc3cccc4c3OCCO4)sc2nc1C | growth | 35.8% (inactive) |
| Cc1cc(N/N=C/c2nc(-c3ccc(Br)cc3)oc2C)c2cc(Br)ccc2n1 | growth | 105% (inactive) |
| C=C(C)[C@@H]1CC[C@]2(C(=O)O)CC[C@]3(C)[C@H](CC[C@@H]4[C@@]5(C)C[C@@H](CC#Cc6ccc(C(F)(F)F)cc6)[C@H](O)C(C)(C)[C@@H]5CC[C@]43C)[C@@H]12 | growth | 36.2% (inactive) |
| COc1ccc(-c2[nH]nc(N)c2-c2cc(OC)c3c(c2)OCO3)cc1 | growth | 76.7% (inactive) |
| COc1ccc(/C=C/c2c(C(C)=O)c(C)nc3ccccc23)cc1 | growth | 80.8% (inactive) |
| NC(=N\N=C/c1ccc(O)cc1)/C(N)=N\N=C/c1ccc(O)cc1 | growth | 82.6% (inactive) |
| CC(C)NCCCNC1=C(Cl)C(=O)c2ccccc2C1=O | growth | 107% (inactive) |
| Nc1nc(-c2ccccc2)c(CCCOc2ccc(NC(=O)CBr)cc2)c(=O)[nH]1 | growth | 125% (inactive) |
| C=C[C@@H]1C[C@H](O)Cc2cc(F)ccc2N1 | growth | 104% (inactive) |
| CC(NNC(C)c1ccccc1)c1ccccc1 (stereo not given) | growth | 110% (inactive) |
| O=C(/C=C/c1ccccc1)c1cccc(O)c1 | growth | 104% (inactive) |
| COc1ccc(/C=C2\Oc3cc(OCCCN4CCCC4)ccc3C2=O)c(OC)c1 | growth | 110% (inactive) |
| COc1ccc(-c2cn(-c3cccc(C(=O)/C=C/c4cc(OC)c(OC)c(OC)c4)c3)c(=O)[nH]2)cc1OC | growth | 82.7% (inactive) |
| CCCCCc1cc[n+](CC(=O)c2ccc([N+](=O)[O-])cc2)cc1 | growth | 93.9% (inactive) |
| O=C(CSC1CCc2ccccc21)N/N=C/c1ccccc1O (stereo not given) | growth | 50% (inactive) |
| CCC1=CCC[C@@]2(C)CCC[C@@]3(C)CCCC(C)(C)[C@]1([O-])[O+]32 | growth | 107% (inactive) |
| CCCCCCN1CSC(=S)N(CCCCCC)C1 | growth | 107% (inactive) |
| O=C(O)c1cn(C2CC2)c2cc(N3CCN(C(=O)/C=C/c4ccc(Cl)cc4)CC3)c(F)cc2c1=O | growth | 66.4% (inactive) |
| O=[N+]([O-])c1ccc(C(c2ccccc2)c2ccccc2)cc1 | growth | 102% (inactive) |
| COc1ccc(-c2cnoc2-c2ccc(OC)cc2O)cc1 | growth | 30% (inactive) |
| COc1ccc(C2C(C#N)=C(N)Oc3c2ccc2ccccc32)cc1 (stereo not given) | growth | 57.8% (inactive) |
| Fc1ccc(-c2nc(-c3nc4ncccc4[nH]3)cc3c2[nH]c2ccccc23)cc1F | growth | 111% (inactive) |
| COC(=O)C1CCCN1C(=O)[C@@H]1CCCN1C(=O)[C@H](Cc1c[nH]c2ccccc12)NC(=S)Nc1cc(C(F)(F)F)cc(C(F)(F)F)c1 (stereo not given in full) | growth | 87.4% (inactive) |
| COc1ccc(-c2cc3c(OC)c(OC)c(OC)cc3oc2=O)cc1 | growth | 67.1% (inactive) |
| CN1C(=O)N(C)C2C1NN=c1s/c(=C\C=C\c3ccccc3)c(=O)n12 (stereo not given) | growth | 65.7% (inactive) |
| COc1cc2c(c(OC)c1OC)-c1ccc(N)c(=O)cc1[C@@H](NC(C)=O)CC2 | growth | 23.9% (inactive) |
| O=C(c1ccccc1)C1OC1c1ccc([N+](=O)[O-])cc1 (stereo not given) | growth | 97.3% (inactive) |
| c1cc(C2=N[C@@H]3c4ccccc4C[C@@H]3O2)nc(C2=N[C@@H]3c4ccccc4C[C@@H]3O2)c1 | growth | 117% (inactive) |
| C=C(C)[C@@H]1C[C@H](O)Cc2cc(F)ccc2N1 | growth | 102% (inactive) |
| N/C(=N\C(N)=N\c1nc2ccccc2s1)c1cccc(Br)c1 | growth | 129% (inactive) |
| COC(=O)c1nc(-c2ccccc2)oc1S(=O)(=O)N1CCN(c2cccc(Cl)c2)CC1 | growth | 92.9% (inactive) |
| CN(C[C@H]1Cc2c(cccc2N2CCN(c3ncccn3)CC2)CN1)[C@H]1CCCc2cccnc21 | growth | 39.5% (inactive) |
| COc1cc(-c2nn(-c3cccc(NC(=O)c4cccc(C(F)(F)F)c4)c3)cc2-c2ccncc2)ccc1Cl | growth | 7.18% (active) |
| COc1cc(Nc2ncccc2C(=O)NCc2cn(Cc3cccc(Oc4ccccc4)c3)nn2)cc(OC)c1 | growth | 41.9% (inactive) |
| COc1cc(NC(=O)SC2=NCCS2)cc(OC)c1 | growth | 98% (inactive) |
